Origin of the recorded values: ChEMBL document CHEMBL3988442

Organism: Homo sapiens
Assay explanation: To identify inhibition of the IFN signalling (Jak-Stat) pathway via expression of an eGFP reporter gene under the control of an IFN-stimulated response element (ISRE) containing MxA promoter.
Assay type: functional
Set-up: scale not given: direction of the effect not stated beside the values
Run parameters: 30 µM

Compound: CNS(=O)(=O)Cc1ccc(CNC(=O)c2cccc(C)n2)cc1
Percent Effect (%): 15.5

Compound: CCCC1(CO)CCCN(c2ncccc2F)C1 (centres undefined)
Percent Effect (%): 10.4

Compound: Cc1nc(C(=O)N2CCCC(c3cccc(-n4ccnc4)n3)C2)co1 (centres undefined)
Percent Effect (%): 12.6

Compound: Cc1ccc(CC(=O)NC(C)C(=O)N2CCS(=O)(=O)CC2)cc1 (centres undefined)
Percent Effect (%): 1.44

Compound: N#Cc1cccc(NC(=O)N[C@H](CO)c2ccccc2)c1
Percent Effect (%): 5.19

Compound: CC(C)(C)c1nnc(CN2CCCC2c2noc(C3CC3)n2)o1 (centres undefined)
Percent Effect (%): -8.49

Compound: Cn1nc2c(cc1=O)CN(CCc1nc3ccccc3c(=O)[nH]1)CC2
Percent Effect (%): 6.4

Compound: Cc1cccc(N2CCN(CCNC(=O)C(C)n3cncn3)CC2)c1 (centres undefined)
Percent Effect (%): 9.51

Compound: CCn1ccnc1CN1CCN(CCOc2ccccc2OC)CC1
Percent Effect (%): 7.16

Compound: COc1cc2nc3n(c(=O)c2cc1OC)CCN(C)CC3
Percent Effect (%): 0.926

Compound: C1CC1c1nsc(N2CCN(C3CC3)CC2)n1
Percent Effect (%): 12.3

Compound: Cc1ccc(=O)n(CC2(O)CCN(Cc3cnc(C)nc3)CC2)n1
Percent Effect (%): 17.5

Compound: COc1cc(CNC2CCc3nc(C)nn3C2)cc2c1OCCO2 (centres undefined)
Percent Effect (%): -11.3

Compound: CCN(CC)C(=O)Cn1ccc2cc(NC(=O)C3CCCO3)ccc21 (centres undefined)
Percent Effect (%): 2.47

Compound: CN1CC(=O)N(c2cccnc2)CC12CCN(C(=O)c1cccnc1)C2 (centres undefined)
Percent Effect (%): 2.71

Compound: CNc1nc(C(=O)N2CCCC(c3nccn3CC3CCC3)C2)cs1 (centres undefined)
Percent Effect (%): 0.132

Compound: COc1ccc(CN2CCCC3(CCN(c4ccsc4)C3=O)C2)cc1 (centres undefined)
Percent Effect (%): 21.2

Compound: Cc1cnn(CCC(=O)N2CCCN(c3cccnn3)CC2)c1
Percent Effect (%): 12.8

Compound: CCc1nc(C(=O)NCc2ccc(N3CCNC(=O)C3)c(F)c2)c[nH]1
Percent Effect (%): 13.4

====

Parameter: Percent Effect. Scope: all listed entries.
Tgt: Chromo domain-containing protein 1 (Saccharomyces cerevisiae (strain ATCC 204508 / S288c) (Baker's yeast)) (UniProt P32657)
Sequence (P32657 whole entry, the tested form may be a part): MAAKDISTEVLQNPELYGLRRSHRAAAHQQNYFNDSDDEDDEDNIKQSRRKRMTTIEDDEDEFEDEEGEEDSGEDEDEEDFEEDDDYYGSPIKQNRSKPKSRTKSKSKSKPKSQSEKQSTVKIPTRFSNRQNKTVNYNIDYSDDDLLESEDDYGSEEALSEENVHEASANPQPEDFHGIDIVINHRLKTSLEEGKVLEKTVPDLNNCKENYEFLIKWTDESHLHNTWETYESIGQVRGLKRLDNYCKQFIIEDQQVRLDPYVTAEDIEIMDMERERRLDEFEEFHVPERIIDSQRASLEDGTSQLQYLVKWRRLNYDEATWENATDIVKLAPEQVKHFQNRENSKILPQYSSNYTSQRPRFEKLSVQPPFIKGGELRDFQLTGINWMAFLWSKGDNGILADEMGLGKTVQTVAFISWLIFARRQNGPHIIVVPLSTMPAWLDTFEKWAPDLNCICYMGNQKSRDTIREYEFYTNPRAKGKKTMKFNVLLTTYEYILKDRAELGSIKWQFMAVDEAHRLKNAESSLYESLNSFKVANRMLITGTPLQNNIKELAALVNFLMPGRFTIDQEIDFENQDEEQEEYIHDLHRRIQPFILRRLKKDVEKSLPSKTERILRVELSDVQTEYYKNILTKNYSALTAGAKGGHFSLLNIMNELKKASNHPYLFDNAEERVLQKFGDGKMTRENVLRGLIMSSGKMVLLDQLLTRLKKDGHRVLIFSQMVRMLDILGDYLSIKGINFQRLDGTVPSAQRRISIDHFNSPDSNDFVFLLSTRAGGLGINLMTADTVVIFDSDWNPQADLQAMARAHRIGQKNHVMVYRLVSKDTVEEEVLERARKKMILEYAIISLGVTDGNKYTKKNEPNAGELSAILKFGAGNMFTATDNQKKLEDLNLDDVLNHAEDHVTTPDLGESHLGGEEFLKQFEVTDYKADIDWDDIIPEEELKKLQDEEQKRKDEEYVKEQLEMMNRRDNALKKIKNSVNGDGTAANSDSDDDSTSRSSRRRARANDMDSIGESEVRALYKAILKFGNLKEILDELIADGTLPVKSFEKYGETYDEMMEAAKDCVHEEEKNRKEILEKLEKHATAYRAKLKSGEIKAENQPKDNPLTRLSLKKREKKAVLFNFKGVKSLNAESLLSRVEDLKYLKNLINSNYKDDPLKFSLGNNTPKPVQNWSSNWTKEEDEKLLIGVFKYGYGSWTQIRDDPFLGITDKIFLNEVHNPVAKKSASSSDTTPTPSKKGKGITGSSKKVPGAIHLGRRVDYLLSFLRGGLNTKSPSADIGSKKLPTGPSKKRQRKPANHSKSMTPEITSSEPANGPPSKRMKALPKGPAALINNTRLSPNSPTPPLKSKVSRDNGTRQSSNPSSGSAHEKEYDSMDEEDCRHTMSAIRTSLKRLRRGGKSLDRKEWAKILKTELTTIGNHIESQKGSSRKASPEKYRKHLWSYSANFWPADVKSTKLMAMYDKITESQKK
Assay explanation: ScCHD-1 Enzyme Inhibition Assay; note: in the data most compounds retested in dose-response had high values
Format: functional
Parameters: scale not given: direction of the effect not stated beside the values
Run parameters: 30 µM

Molecule: CCC1=N[C@@]2(CC[C@@H]3CN(C(=O)Nc4ccc(F)cc4)C[C@@H]32)C(=O)N1
Percent Effect (%): -6.29
//
Molecule: CC(=O)N1CCC(C(=O)N(C)[C@@H]2CCC[C@@H](N3CCCC3)[C@@H]2O)CC1
Percent Effect (%): -22.6
//
Molecule: c1ccc(NCc2cn3c(n2)CN(Cc2cccnc2)CC3)nc1
Percent Effect (%): 0.00712
//
Molecule: Cc1nn(C)c(C)c1CNC1CCOc2ccccc21 (stereo unspecified)
Percent Effect (%): -2.87
//
Molecule: O=C(NCc1ccc(F)cc1)N1CCC(C2OCCO2)CC1
Percent Effect (%): -4.56
//
Molecule: CC(Sc1nnnn1C1CCOCC1)C(=O)NC1CCCCC1 (stereo unspecified)
Percent Effect (%): -4.98
//
Molecule: O=C1COC2(CCN(Cc3ccoc3)CC2)CN1c1ccsc1
Percent Effect (%): -2.01
//
Molecule: Cc1cc(C(=O)N2CC[C@H](OCC3CC3)[C@@H]2Cc2cccnc2)no1
Percent Effect (%): -5.62
//
Molecule: CC(NC(=O)NCc1ccoc1)c1ccc2c(c1)CCC(=O)N2 (stereo unspecified)
Percent Effect (%): -9.68
//
Molecule: Fc1ccc(-c2nnc(CN3CCCC3Cn3cncn3)o2)cc1 (stereo unspecified)
Percent Effect (%): -10.5
//
Molecule: CCN(CC(=O)NC)S(=O)(=O)N1CCCCCC1
Percent Effect (%): -2.62
//
Molecule: OCc1ccc(Cl)c(NCc2cccnc2)c1
Percent Effect (%): -6.29
//
Molecule: CC1(C)CC(N(Cc2ccccc2)Cc2cccnc2)CC(C)(C)N1
Percent Effect (%): -29.8
//
Molecule: CN(C)c1cc(CNC(=O)c2cn(-c3ccc(F)cc3)nn2)ccn1
Percent Effect (%): -6.24
//
Molecule: Cc1cccc(CN(C)Cc2nc3c(cnn3C)c(=O)[nH]2)c1
Percent Effect (%): -7.57
//
Molecule: Cc1noc(C(C)C)c1C(=O)NCc1cc(F)cc(F)c1
Percent Effect (%): -9.23

====

Tgt: Arginase-2, mitochondrial (Homo sapiens)
Assay explanation: in vitro enzyme assay to detect the production of urea directly proportional to the activity of Arginase II; note: in the data most compounds retested in dose-response had high values
Type: functional
Set-up: scale not given: direction of the effect not stated beside the values
Run parameters: 33.3 µM
Parameter: Percent Effect. Scope: all listed entries.

Compound: COc1ccc(C(=O)N(Cc2cnn(C)c2)C(C)C)cc1Br
Percent Effect: -2.52%
//
Compound: O=C(c1ccc[nH]1)N1C[C@H]2CC[C@@H]1CN(C1Cc3ccccc3C1)C2
Percent Effect: 23.1%
//
Compound: Cc1cccc(CNC2CCCc3c2cnn3C)c1 (configuration not stated)
Percent Effect: 0%
//
Compound: COc1cccc(-n2c(C)cc(C(=O)O)c2C)c1
Percent Effect: 2.28%
//
Compound: O=C(NCC1CC1)c1nc(COc2ccc3c(c2)OCO3)no1
Percent Effect: -5.46%
//
Compound: Cc1cccc(CN2CCc3ncnc(C)c3CC2)n1
Percent Effect: -0.798%
//
Compound: CC(c1ccc(Cl)cc1)N1CCN(CCNS(C)(=O)=O)CC1 (configuration not stated)
Percent Effect: 0.952%
//
Compound: CCCN(Cc1ccccc1)Cn1nc(C)c2c(C)onc2c1=O
Percent Effect: -4.81%
//
Compound: O=C(Nc1ccccn1)N(CCO)Cc1ccsc1
Percent Effect: 0%
//
Compound: Cn1ccc(C(=O)N2CCCC(Cc3cccc4ncccc34)C2)n1 (configuration not stated)
Percent Effect: -4.41%
//
Compound: CN(Cc1ccncc1)CC(c1cccs1)N1CCOCC1 (configuration not stated)
Percent Effect: -2.03%
//
Compound: Cc1ccoc1C(=O)N1C[C@H]2CCC[C@@]2(COCc2ccncc2)C1
Percent Effect: -3.23%
//
Compound: CC(C)N1CC(C(=O)NCCc2csc(-c3ccncc3)n2)CC1=O (configuration not stated)
Percent Effect: -11%
//
Compound: COc1ccccc1CCNC(=O)CN1CCCC1c1noc(C)n1 (configuration not stated)
Percent Effect: 1.53%
//
Compound: CCN1CCOC(CNCc2ccccc2OCC(=O)N(C)C)C1 (configuration not stated)
Percent Effect: -2.88%
//
Compound: Cc1noc(-c2ccc(N3CCCC(C(=O)N4CCSCC4)C3)nc2)n1 (configuration not stated)
Percent Effect: -1.36%
//
Compound: Cc1ccc(N2CCCC(NCc3cscn3)C2)nn1 (configuration not stated)
Percent Effect: 18.4%
//
Compound: COCCOCC(=O)Nc1ccc(Br)cc1F
Percent Effect: -5.92%
//
Compound: CCOc1ccccc1C(=O)NS(=O)(=O)c1ccc2c(c1)OCCCO2
Percent Effect: -3.24%
//
Compound: CCc1nc2ccccc2c(=O)n1CC1(O)CCN(S(C)(=O)=O)CC1
Percent Effect: 7.66%
//
Compound: Cc1ccoc1-c1nnc(CNCCn2cccn2)o1
Percent Effect: 1.52%
//
Compound: CC(O)CN1CCN(C(=O)c2cccc(CC#N)c2)CC1 (configuration not stated)
Percent Effect: 3.92%
//
Compound: O=C(c1ccc(Br)s1)N1CCN(Cc2ccc(OC(F)(F)F)cc2)CC1
Percent Effect: -1.82%
//
Compound: CN(C)[C@@H]1CCN(c2ncccn2)[C@H]1Cc1ccccc1
Percent Effect: -1.38%
//
Compound: N#Cc1cccnc1NCCNC(=O)N1CCCSCC1
Percent Effect: -2.38%
//
Compound: Cc1nn(C)c2c(N3CCN(C(=O)C4CCC4)CC3)ncnc12
Percent Effect: -2.99%
//
Compound: CC(=O)N(Cc1ncc(C(C)C)o1)C1CCN(Cc2ncc[nH]2)C1 (configuration not stated)
Percent Effect: -3.14%
//
Compound: O=C(CCc1nccs1)N1CCN(c2cccnn2)CC1
Percent Effect: -0.21%
//
Compound: Cc1cccc(COC[C@]23COC[C@H]2CN(C(=O)c2ccsc2)C3)n1
Percent Effect: 27.9%
//
Compound: COCc1nn(C(C)C)c2c1CCN(Cc1ccc(C)s1)C2
Percent Effect: 5.99%
//
Compound: CCN(CC)C(=O)CCNC(=O)N1CCC(c2ccccc2)C1 (configuration not stated)
Percent Effect: -4.29%
//
Compound: CN(C)CCNC(=O)c1cnc2c(c1)nc(-c1ccccc1Cl)n2C
Percent Effect: 1.74%
//
Compound: CC(C)c1nnc2n1CCN(C(=O)CN1CCc3sccc3C1)C2
Percent Effect: 4.6%
//
Compound: Cc1nc(N2CCCC2)nc2c1CN(C(C)C)CC2
Percent Effect: -51.8%
//
Compound: Cc1nnc(SCC(=O)N2CCC3(CC2)c2ccccc2CC3O)o1 (configuration not stated)
Percent Effect: 0%
//
Compound: CS(=O)(=O)NCC1CCCCN1C(=O)Nc1cccnc1N1CCCC1 (configuration not stated)
Percent Effect: 0%
//
Compound: COc1ccccc1S(=O)(=O)N1CCC(Oc2cccnn2)CC1
Percent Effect: -0.909%
